Data origin: patent US20240382600A1

Target: Avi-humanTEAD4^217-434 / Cy5 labeled humanYAP^60-100 (Homo sapiens (Human), UniProt Q15561)
Sequence (Q15561 217-434): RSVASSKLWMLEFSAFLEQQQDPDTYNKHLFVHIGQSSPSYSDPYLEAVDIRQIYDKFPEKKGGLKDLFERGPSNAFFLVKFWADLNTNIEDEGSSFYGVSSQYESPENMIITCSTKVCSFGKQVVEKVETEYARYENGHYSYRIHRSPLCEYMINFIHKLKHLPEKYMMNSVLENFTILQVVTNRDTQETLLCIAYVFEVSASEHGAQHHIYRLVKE
Assay: In-vitro biochemical TR-FRET assay (TEAD4/YAP)
Conditions: 1 h at room temperature
pIC50: −log10 of the molar value.
quantity kind: pIC50

{"columns": ["compound", "measurement qualifier", "observed result"],
 "data": [
  ["COc1ccc(C(N)=O)c(-c2c(Cl)c(F)cc3c2[C@H](C)[C@@](CNCCCCCc2cccc4c2CN(C2CCC(=O)NC2=O)C4=O)(c2ccccc2)O3)c1F (some centres unmarked)", "=", 8.14],
  ["COc1ccc(C(N)=O)c(-c2c(Cl)c(F)cc3c2[C@H](C)[C@@](CN[C@H]2CC[C@H](C(=O)N4CCC(OC5CCN(C(=O)c6ccc(Cl)c(N7CCC(=O)NC7=O)c6)CC5)CC4)CC2)(c2ccccc2)O3)c1F (atropisomer, axis not shown)", "=", 8.74],
  ["COc1ccc(C(N)=O)c(-c2c(Cl)c(F)cc3c2[C@H](C)[C@@](CN[C@H]2CC[C@H](C(=O)N4CCC(CC5CCN(C(=O)COc6ccc(F)c(N7CCC(=O)NC7=O)c6)CC5)CC4)CC2)(c2ccccc2)O3)c1F (atropisomer, axis not shown)", "=", 8.48],
  ["COc1ccc(C(=O)N2CCC(C3CCN(C(=O)[C@H]4CC[C@H](NC[C@]5(c6ccccc6)Oc6cc(F)c(Cl)c(-c7c(C(N)=O)ccc(OC)c7F)c6[C@@H]5C)CC4)CC3)CC2)cc1N1CCC(=O)NC1=O (atropisomer, axis not shown)", "=", 8.59],
  ["COc1ccc(C(=O)N2CCC(CC3CCN(CCNC(=O)[C@H]4CC[C@H](NC[C@]5(c6ccccc6)Oc6cc(F)c(Cl)c(-c7c(C(N)=O)ccc(OC)c7F)c6[C@@H]5C)CC4)CC3)CC2)cc1N1CCC(=O)NC1=O (atropisomer, axis not shown)", ">", 9.00],
  ["COc1ccc(C(N)=O)c(-c2c(Cl)c(F)cc3c2[C@H](C)[C@@](CN[C@H]2CC[C@H](C(=O)N4CCC(C5CCN(C(=O)COc6cc(-c7scnc7C)ccc6CNC(=O)[C@@H]6C[C@@H](O)CN6C(=O)[C@@H](NC(=O)C6(F)CC6)C(C)(C)C)CC5)CC4)CC2)(c2ccccc2)O3)c1F (atropisomer, axis not shown)", "=", 8.06],
  ["CNC(=O)c1cnc(OCCOCCOCCn2cc(-c3cccc(N4CCC(=O)NC4=O)c3)nn2)c(F)c1-c1c(Cl)c(F)cc2c1C[C@](c1ccccc1)([C@@H]1CCCN1)O2 (atropisomer, axis not shown)", "=", 8.16],
  ["COc1ccc(C(N)=O)c(-c2c(Cl)c(F)cc3c2[C@H](C)[C@@](CN[C@H]2CC[C@H](C(=O)N4CCC(CC5CCN(C(=O)COc6ccc(N7CCC(=O)NC7=O)c(C)c6)CC5)CC4)CC2)(c2ccccc2)O3)c1F (atropisomer, axis not shown)", "=", 8.40],
  ["COc1ccc(C(N)=O)c(-c2c(Cl)c(F)cc3c2[C@H](C)[C@@](CN[C@H]2CC[C@H](C(=O)N4CCC(OC5CCN(C(=O)CCC(=O)N[C@H](C(=O)N6C[C@H](O)C[C@H]6C(=O)N[C@@H](C)c6ccc(-c7scnc7C)cc6)C(C)(C)C)CC5)CC4)CC2)(c2ccccc2)O3)c1F (atropisomer, axis not shown)", "=", 8.64],
  ["COc1ccc(C(=O)N2CCC3(CCN(CCNC(=O)[C@H]4CC[C@H](NC[C@]5(c6ccccc6)Oc6cc(F)c(Cl)c(-c7c(C(N)=O)ccc(OC)c7F)c6[C@@H]5C)CC4)CC3)CC2)cc1N1CCC(=O)NC1=O (atropisomer, axis not shown)", ">", 9.00],
  ["COc1ccc(C(N)=O)c(-c2c(Cl)c(F)cc3c2[C@H](C)[C@@](CN[C@H]2CC[C@H](C(=O)N4CCC(CC5CCN(C(=O)Cn6cccc(CN7CCC(=O)NC7=O)c6=O)CC5)CC4)CC2)(c2ccccc2)O3)c1F (atropisomer, axis not shown)", "=", 8.89],
  ["COc1ccc(C(=O)N2CCN(CC3CCN(CCNC(=O)[C@H]4CC[C@H](NC[C@]5(c6ccccc6)Oc6cc(F)c(Cl)c(-c7c(C(N)=O)ccc(OC)c7F)c6[C@@H]5C)CC4)CC3)CC2)cc1N1CCC(=O)NC1=O (atropisomer, axis not shown)", ">", 9.00],
  ["COc1ccc(C(N)=O)c(-c2c(Cl)c(F)cc3c2[C@H](C)[C@@](CN[C@H]2CC[C@H](C(=O)N4CCC(CC5CCN(C(=O)COc6cc(-c7scnc7C)ccc6CNC(=O)[C@@H]6C[C@@H](O)CN6C(=O)[C@@H](NC(=O)C6(F)CC6)C(C)(C)C)CC5)CC4)CC2)(c2ccccc2)O3)c1F (atropisomer, axis not shown)", "=", 7.72],
  ["COc1ccc(C(N)=O)c(-c2c(Cl)c(F)cc3c2[C@H](C)[C@@](CN[C@H]2CC[C@H](C(=O)NCCCCCCCNC(=O)COc4ccc(C)c(N5CCC(=O)NC5=O)c4)CC2)(c2ccccc2)O3)c1F (atropisomer, axis not shown)", ">", 9.00]
]}
